Reported IC50 values follow for various compounds
# tested-system: recombinant human CK2 (Homo sapiens)
# Construct: purchased Upstate
# Sequence (P68400 whole entry): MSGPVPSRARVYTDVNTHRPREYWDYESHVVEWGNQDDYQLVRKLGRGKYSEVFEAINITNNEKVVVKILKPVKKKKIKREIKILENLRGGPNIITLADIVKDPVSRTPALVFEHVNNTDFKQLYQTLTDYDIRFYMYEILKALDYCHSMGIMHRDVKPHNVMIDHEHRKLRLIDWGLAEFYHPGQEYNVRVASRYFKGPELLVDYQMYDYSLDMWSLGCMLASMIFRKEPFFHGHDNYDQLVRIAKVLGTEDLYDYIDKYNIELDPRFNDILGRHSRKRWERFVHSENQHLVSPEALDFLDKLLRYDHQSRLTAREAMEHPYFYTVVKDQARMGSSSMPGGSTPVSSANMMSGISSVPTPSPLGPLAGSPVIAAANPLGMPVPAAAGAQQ
# Sequence (P67870 whole entry partner): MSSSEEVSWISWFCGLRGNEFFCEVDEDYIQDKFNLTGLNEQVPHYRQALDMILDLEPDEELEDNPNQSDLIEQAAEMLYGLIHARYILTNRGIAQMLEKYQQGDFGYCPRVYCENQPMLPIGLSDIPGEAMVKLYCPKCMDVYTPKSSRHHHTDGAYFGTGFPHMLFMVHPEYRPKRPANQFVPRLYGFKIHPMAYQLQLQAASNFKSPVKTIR
# assay-overview: CK2 assay (cell-free, 33P-ATP filter plate)
# Format: biochemical
# measurement-conditions: Table 1
Number only, in nM; omit the unit.

Past entries and their recorded results:
In [3]: df
Out[3]:
                           substance_smiles  measure_name  test_result
0  CN1CCCN(C(=O)c2cccc(-c3ccc(/C=C4\SC(=S)NC4=O)o3)c2)CC1          IC50           47
1  Cc1nccn1CCNC(=O)c1ccc(-c2ccc(/C=C3\SC(=S)NC3=O)o2)cc1          IC50          226

Proceeding to the next compound to report its IC50.
Fill in IC50 for record "O=C1NC(=S)S/C1=C\c1ccc(-c2cccc(C(=O)N3CC[C@H](F)C3)c2)o1"
12
